system: HOP-92 NSCLC; assay: NCI-60 one-dose screen, 48 h; conditions: 10 µM unless noted
Compounds without any hit were thinned out: in the full panel of roughly 83,000, 20% have a hit. Activity calls are given as the source filed them. How the source made its calls: active means growth percent below 10; inactive means the rest.
Permitted responses: Y (active), N (inactive)

input: Status in this test for "O=C(Cc1ccc(/C=C/C(=O)c2ncc[nH]2)cc1)Nc1ccc(S(F)(F)(F)(F)F)cc1" ?
output: N

input: Status in this test for "CC(C)NC[C@@H](C(=O)N1CCN(c2ncnc3c2[C@H](C)C[C@H]3O)CC1)c1ccc(Cl)cc1" ?
output: Y

input: Status in this test for "CC(C)OP(=O)(CCC(=O)c1c[nH]c2ccccc12)OC(C)C" ?
output: N
